- System: CCRIS mutagenicity, Ames/micronucleus/aberration tests
- EXPERIMENTAL_DETAILS: CCRIS mutagenicity studies
- REPORTED_CONDITIONS: Test System: CHINESE HAMSTER V-79; Strain/Indicator: V-79/OUABAIN; Metabolic Activation: NONE; Method: STANDARD PLATE
The source made the active and inactive calls. No rule for the calls is given here.
Classes used: 1 (yes) for active, 0 (no) for inactive

COMPOUND	GROUP_LABEL
CC(CN(CC(=O)O)CC(=O)O)N(CC(=O)O)CC(=O)O (stereo unspecified)	1 (yes)
ClC1CO1 (stereo unspecified)	1 (yes)
CNC(=O)c1cccc2c(Nc3ccc(NS(C)(=O)=O)cc3OC)c3cccc(C)c3nc12	0 (no)
CC(=O)OC/N=[N+](/C)[O-]	1 (yes)
C/[N+]([O-])=N/CO	1 (yes)
ClC1=C(Cl)C2(Cl)C3C(Cl)C(Cl)CC3C1(Cl)C2(Cl)Cl (stereo unspecified)	1 (yes)

###

- Test system: CCRIS mutagenicity, Ames/micronucleus/aberration tests
- EXPERIMENTAL_DETAILS: CCRIS mutagenicity studies
- REPORTED_CONDITIONS: Test System: Mouse lymphoma; Strain/Indicator: L5178Y (tk+/tk-); Metabolic Activation: None; Method: Suspension/plate
Calls of active or inactive are those of the source. No rule for the calls is given here.
Classes used: active, inactive

MOLECULE	GROUP_LABEL
NCC(=O)O	active
C=C(C)OC(C)=O	active
Cc1cc(N=Nc2ccccc2C)ccc1N	inactive
COC(=O)[C@@H]1[C@H]2C[C@H]3c4[nH]c5ccccc5c4CCN3C[C@@H]2CC[C@@H]1O	inactive
Cc1ccccc1C#N	inactive
CCN(CCCl)CCCNc1c2ccc(Cl)cc2nc2ccc(OC)cc12	active
COC(=O)/C=C/C(C)=C\C=C\C(C)=C\C=C\C=C(C)\C=C\C=C(C)\C=C\C(=O)O	inactive
Cc1c2ccncc2c(C)c2c1[nH]c1ccccc12	active
C=C(C)C1CC=C(CO)CC1 (stereo not given)	inactive
CCC1(O)C(=O)OCc2c1cc1n(c2=O)Cc2cc3c(N)cccc3nc2-1 (stereo not given)	active
CC1CCCO1 (stereo not given)	inactive
Oc1c(Br)cc(Br)cc1Br	active
Nc1ccc(Cl)cc1	active
CN(C)c1ccc(N=Nc2cccc3ccccc23)cc1	active
C=C(C)C(C)=O	active

###

- Tested on: CCRIS mutagenicity, Ames/micronucleus/aberration tests
- EXPERIMENTAL_DETAILS: CCRIS mutagenicity studies
- REPORTED_CONDITIONS: Test System: Mouse lymphoma; Strain/Indicator: L5178Y (tk+/tk-); Metabolic Activation: Rat, Liver, S-9, Aroclor 1254; Method: Suspension/plate
- Source text: The CCRIS database contains chemical records with carcinogenicity, mutagenicity, tumor promotion, and tumor inhibition test results. It was developed by the National Cancer Institute (NCI). Data are derived from studies cited in primary journals, current awareness tools, NCI reports, and other sources. Test results have been reviewed by experts in carcinogenesis and mutagenesis. CCRIS provides historical information from the years 1985 - 2011. It is no longer updated. […]
The source made the active and inactive calls. No rule for the calls is given here.
Classes used: y for active, n for inactive

MOLECULE	GROUP_LABEL
O.O=P([O-])([O-])[O-].[Fe+3]	y
C=C(C)C1CC=C(CO)CC1 (configuration not stated)	n
CC1CCCO1 (configuration not stated)	n
Oc1c(Br)cc(Br)cc1Br	n
C=C(C)C(C)=O	y
Cc1c2ccncc2c(C)c2c1[nH]c1ccccc12	y
CC1CS1 (configuration not stated)	y
COC(=O)[C@@H]1[C@H]2C[C@H]3c4[nH]c5ccccc5c4CCN3C[C@@H]2CC[C@@H]1O	n
COC(=O)/C=C/C(C)=C\C=C\C(C)=C\C=C\C=C(C)\C=C\C=C(C)\C=C\C(=O)O	n
CCC1(O)C(=O)OCc2c1cc1n(c2=O)Cc2cc3c(N)cccc3nc2-1 (configuration not stated)	y
